The measured values listed here are drawn from patent US10556872B2.

Test system: MCF-7 breast cancer cells
Experiment: MTT assay, cell viability of MCF-7 breast cancer cells
Assay type: cell-based
Settings: Homo sapiens, MCF7; MCF-7 cells, 24 hours of treatment
Experimental: An MTT assay was performed with the FAS inhibiting compounds of Formulae II, III, IV and V (e.g., Compound 1A) on MCF-7 breast cancer cells, with an IC50 of about […] after 24 hours of treatment. The results are illustrated in FIG. 2. Antiproliferative effect of FAS inhibitors on MCF-7 cells was determined by performing MTT assay. […] Cell viability was evaluated by the MTT (Sigma-Aldrich, St. Louis, Mont.) assay. […]
observation_type: IC50

Field request: IC50 | item: CCCCCCCCCCCCCCCCOC(=O)CCn1cc(Br)c(=O)[nH]c1=O [Compound 1A]
~10 µM
